Data provenance is patent US7601494B2.

# testSummary: In vivo biliary excretion and biliary clearance in rats (literature data, Equations 1 and 2)
# protocolConditions: rat, in vivo intrinsic biliary clearance, calculated from Equation 2 (well-stirred model)
propertyName: clearance

Lookup: Annotate the molecule CC1(C)SSC(C)(C)[C@@H](NC(=O)[C@@H](N)Cc2ccc(O)cc2)C(=O)NCC(=O)N[C@@H](Cc2ccccc2)C(=O)N[C@H]1C(=O)O [[D-pen^2,5]enkephalin] with its measured clearance.
Found: ~34.4 mL/min/kg

* * *

# testSummary: in vivo
# protocolConditions: rat, in vivo intrinsic biliary clearance
propertyName: clearance

Lookup: Indicate its recorded clearance; the compound in question is CN(Cc1cnc2nc(N)nc(N)c2n1)c1ccc(C(=O)N[C@@H](CCC(=O)O)C(=O)O)cc1 [methotrexate]
Found: ~17.3 mL/min/kg
